Each recorded value in this set is attributed to patent US20260138961A1.

Target: POLγA:G848S (Homo sapiens, UniProt P54098, G848S)
Experiment: DNA polymerization assay, POLγA:G848S mutant
Type: biochemical
Settings: stimulation of polymerase activity, primed M13mp18 ssDNA, 37° C. 2 hours; read-out: G848S AC50
assayReadout: AC50 (µM)

[a] Cc1ccc(C)c(S(=O)(=O)Nc2cccc(C(=O)N3CCCCC3)c2)c1 [Example 3]
[b] Cc1nc2ccc(NS(=O)(=O)c3cc(C)c(Cl)cc3C)cc2o1 [Example 70]
Parameter check: reported AC50 is higher for which label, a or b ? // caller expects the label of the chosen entry
b
(b: 49 µM, a: 31 µM)

* * *

Biological target: POLγA:G848S (Homo sapiens, UniProt P54098, G848S)
Sequence (P54098 1-1239 G848S): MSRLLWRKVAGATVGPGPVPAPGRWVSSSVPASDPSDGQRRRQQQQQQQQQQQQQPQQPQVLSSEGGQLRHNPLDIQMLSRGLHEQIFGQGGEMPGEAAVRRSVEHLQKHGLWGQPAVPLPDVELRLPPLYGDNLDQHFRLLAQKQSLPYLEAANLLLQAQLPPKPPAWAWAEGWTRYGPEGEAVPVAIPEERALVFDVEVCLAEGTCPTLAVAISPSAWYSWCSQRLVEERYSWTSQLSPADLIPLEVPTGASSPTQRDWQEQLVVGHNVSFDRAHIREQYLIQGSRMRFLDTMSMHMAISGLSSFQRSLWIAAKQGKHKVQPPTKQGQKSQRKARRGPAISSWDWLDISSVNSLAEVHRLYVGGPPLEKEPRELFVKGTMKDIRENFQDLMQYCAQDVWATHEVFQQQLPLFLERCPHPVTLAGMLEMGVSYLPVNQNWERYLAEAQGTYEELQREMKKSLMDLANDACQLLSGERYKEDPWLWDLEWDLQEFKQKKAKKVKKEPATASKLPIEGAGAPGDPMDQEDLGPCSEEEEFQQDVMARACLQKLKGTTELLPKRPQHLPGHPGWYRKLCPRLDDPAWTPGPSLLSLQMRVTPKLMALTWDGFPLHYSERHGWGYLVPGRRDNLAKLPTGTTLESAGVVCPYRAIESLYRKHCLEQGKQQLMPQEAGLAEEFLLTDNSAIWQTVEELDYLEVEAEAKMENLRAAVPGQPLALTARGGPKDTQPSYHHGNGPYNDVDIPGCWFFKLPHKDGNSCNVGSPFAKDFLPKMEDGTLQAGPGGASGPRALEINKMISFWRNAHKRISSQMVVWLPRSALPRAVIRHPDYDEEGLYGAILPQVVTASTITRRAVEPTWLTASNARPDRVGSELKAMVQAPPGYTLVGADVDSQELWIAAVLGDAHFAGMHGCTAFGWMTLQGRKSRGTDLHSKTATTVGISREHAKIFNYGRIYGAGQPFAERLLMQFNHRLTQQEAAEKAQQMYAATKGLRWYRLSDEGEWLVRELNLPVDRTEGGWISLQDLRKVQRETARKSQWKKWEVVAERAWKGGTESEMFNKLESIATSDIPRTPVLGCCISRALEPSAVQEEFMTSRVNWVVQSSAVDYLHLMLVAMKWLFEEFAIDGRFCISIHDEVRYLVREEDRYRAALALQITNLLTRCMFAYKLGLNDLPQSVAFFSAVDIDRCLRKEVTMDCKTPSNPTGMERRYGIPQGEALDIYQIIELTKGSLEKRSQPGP
Sequence (Q9UHN1 1-485 partner): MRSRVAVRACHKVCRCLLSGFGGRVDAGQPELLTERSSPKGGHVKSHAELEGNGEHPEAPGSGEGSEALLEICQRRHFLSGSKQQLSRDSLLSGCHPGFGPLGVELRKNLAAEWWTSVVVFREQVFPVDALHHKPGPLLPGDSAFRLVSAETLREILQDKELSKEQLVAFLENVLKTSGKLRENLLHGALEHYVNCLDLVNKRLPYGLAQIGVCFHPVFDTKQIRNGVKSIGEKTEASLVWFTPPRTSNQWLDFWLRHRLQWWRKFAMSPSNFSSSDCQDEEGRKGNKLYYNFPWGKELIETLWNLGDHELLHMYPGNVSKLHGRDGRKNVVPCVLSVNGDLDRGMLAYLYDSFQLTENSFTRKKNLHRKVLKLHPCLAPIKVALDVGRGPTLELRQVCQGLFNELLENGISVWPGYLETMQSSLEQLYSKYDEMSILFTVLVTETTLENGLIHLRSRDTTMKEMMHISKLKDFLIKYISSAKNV
Test: DNA polymerization assay, POLγA:G848S mutant
Format: biochemical
Conditions: stimulation of polymerase activity, primed M13mp18 ssDNA, 37° C. 2 hours; read-out: G848S AC50
assayReadout: AC50 (µM)

// below: answered compounds
* COCCN(C)C(=O)c1cccc(NS(=O)(=O)c2cc(C)c(Cl)cc2C)c1 | 46
* COc1ccccc1-c1nc(NS(=O)(=O)c2cc(C)c(Cl)cc2C)cs1 | 4
* Cc1cc(S(=O)(=O)Nc2cccc(-c3ncc(CN(C)C)s3)c2)c(C)cc1Cl | 14
* Cc1cc(S(=O)(=O)Nc2csc(-c3ccncc3)n2)c(C)cc1Cl | 0.4
* Cc1cc(S(=O)(=O)Nc2cccc(C(=O)N3CCC[C@H]3C)c2)c(C)cc1Cl | 3

[A] Cc1cc(S(=O)(=O)Nc2csc(C(=O)N3CCC[C@@H]3C)n2)c(C)cc1Cl
[B] Cc1cc(S(=O)(=O)Nc2csc(-c3ccccc3)n2)c(Cl)cc1F
[C] CC(=O)N1CCN(C(=O)c2cccc(NS(=O)(=O)c3cc(C)ccc3C)c2)CC1
[D] Cc1cc(S(=O)(=O)Nc2cccc(C(=O)N[C@H](C)CO)c2)c(C)cc1Cl
[E] Cc1cc(S(=O)(=O)Nc2csc(-c3ccn(C)n3)n2)c(C)cc1Cl
Task field, ranking: reported AC50, descending order. Response format: the labels, sorted as the prompt asks.
D, C, B, A, E
(D: 44 µM, C: 22 µM, B: 2 µM, A: 1 µM, E: 0.7 µM)

[1] Cc1nc2ccc(NS(=O)(=O)c3cc(C)c(Cl)cc3C)cc2s1
[2] Cc1cc(S(=O)(=O)Nc2cccc(-c3ncc(C#N)s3)c2)c(C)cc1Cl
[3] Cc1cc(S(=O)(=O)Nc2cccc(C(=O)N3CCc4ncnc(C)c4C3)c2)c(C)cc1Cl
[4] Cc1ccc(C)c(S(=O)(=O)Nc2cccc(C(=O)N3CCSCC3C(N)=O)c2)c1 (centres unmarked)
[5] Cc1cc(S(=O)(=O)Nc2csc(-n3cccn3)n2)c(C)cc1Cl
Rank the items in ascending order with respect to AC50. Rank them, then answer with their labels in that order.
5, 2, 1, 4, 3

[1] Cc1cc(S(=O)(=O)Nc2cccc(C(=O)N(CC(N)=O)C3CCCC3)c2)c(C)cc1Cl
[2] Cc1cnc(-c2ccc(Cl)c(NS(=O)(=O)c3cc(C)c(Cl)cc3C)c2)s1
1 or 2 : whose AC50 is greater? Kindly state the label of the option you pick.
1
(1: 11 µM, 2: 0.4 µM)

* * *

Target: human POLγ 3′-5′ exonuclease activity (Homo sapiens, UniProt P54098)
Sequence (P54098 1-1239): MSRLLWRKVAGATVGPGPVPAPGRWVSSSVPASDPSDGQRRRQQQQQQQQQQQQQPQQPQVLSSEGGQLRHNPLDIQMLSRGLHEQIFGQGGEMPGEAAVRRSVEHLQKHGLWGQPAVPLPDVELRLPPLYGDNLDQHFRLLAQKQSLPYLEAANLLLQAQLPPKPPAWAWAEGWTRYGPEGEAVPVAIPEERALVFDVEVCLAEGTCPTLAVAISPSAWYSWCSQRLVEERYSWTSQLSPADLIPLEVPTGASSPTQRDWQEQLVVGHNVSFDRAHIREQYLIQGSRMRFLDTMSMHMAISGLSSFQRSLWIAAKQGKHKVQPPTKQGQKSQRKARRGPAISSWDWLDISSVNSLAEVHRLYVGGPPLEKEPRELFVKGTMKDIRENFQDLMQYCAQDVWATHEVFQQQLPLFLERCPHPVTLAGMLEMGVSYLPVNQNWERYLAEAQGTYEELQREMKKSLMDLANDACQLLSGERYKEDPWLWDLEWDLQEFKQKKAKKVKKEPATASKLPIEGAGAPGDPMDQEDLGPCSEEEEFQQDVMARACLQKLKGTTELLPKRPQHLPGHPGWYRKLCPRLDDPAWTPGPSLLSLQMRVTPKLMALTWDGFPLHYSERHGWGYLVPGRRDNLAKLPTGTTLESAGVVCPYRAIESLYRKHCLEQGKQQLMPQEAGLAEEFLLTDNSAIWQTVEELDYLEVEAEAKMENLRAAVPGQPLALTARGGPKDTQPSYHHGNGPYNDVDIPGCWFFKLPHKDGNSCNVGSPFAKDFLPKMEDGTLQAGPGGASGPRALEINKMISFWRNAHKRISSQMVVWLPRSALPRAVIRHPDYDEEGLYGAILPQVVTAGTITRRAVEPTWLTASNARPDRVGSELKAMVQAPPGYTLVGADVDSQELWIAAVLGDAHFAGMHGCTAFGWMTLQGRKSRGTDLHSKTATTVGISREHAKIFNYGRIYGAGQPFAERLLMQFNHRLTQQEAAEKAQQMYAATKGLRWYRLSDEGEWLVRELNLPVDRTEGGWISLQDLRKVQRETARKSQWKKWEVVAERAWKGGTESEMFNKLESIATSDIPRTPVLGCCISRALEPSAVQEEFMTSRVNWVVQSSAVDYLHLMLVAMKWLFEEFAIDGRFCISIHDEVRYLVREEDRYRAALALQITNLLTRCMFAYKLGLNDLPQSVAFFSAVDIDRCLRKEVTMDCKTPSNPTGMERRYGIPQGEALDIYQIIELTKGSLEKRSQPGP
Sequence (Q9UHN1 1-485 partner): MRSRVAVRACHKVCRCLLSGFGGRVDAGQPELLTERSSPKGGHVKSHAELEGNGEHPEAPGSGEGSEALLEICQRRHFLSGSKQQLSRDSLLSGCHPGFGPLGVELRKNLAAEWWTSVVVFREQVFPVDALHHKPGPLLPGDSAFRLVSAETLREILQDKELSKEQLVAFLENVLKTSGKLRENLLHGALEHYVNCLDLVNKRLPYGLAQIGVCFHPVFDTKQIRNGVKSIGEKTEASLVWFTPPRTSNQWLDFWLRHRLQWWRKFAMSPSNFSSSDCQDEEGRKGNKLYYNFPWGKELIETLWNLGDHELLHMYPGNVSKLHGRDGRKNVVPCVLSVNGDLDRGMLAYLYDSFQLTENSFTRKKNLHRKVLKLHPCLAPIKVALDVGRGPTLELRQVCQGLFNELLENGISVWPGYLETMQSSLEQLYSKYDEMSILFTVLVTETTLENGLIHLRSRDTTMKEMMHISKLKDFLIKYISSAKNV
pIC50: −log10 of the molar value.
assayReadout: pIC50

As a guide, the following entries are already answered.
* Cc1cc(S(=O)(=O)Nc2cccc(-c3nccs3)c2)c(C)cc1Cl [Example 16] | 4.92
* Cc1cc(S(=O)(=O)Nc2cccc(C(=O)N3CCCC[C@H]3C)c2)c(C)cc1Cl [Example 9] | 5.70

[a] Cc1ccc(C)c(S(=O)(=O)Nc2cccc(C(=O)N3CCCC[C@@H]3C)c2)c1 [Example 6]
[b] Cc1ccc(C)c(S(=O)(=O)Nc2cccc(C(=O)N3CCCCC3C#N)c2)c1 (stereo not shown) [Example 2]
Could you determine which record has the numerically smaller pIC50? Candidates: a and b Lab note: record the label of whichever item you select.
a
(a: 4.92, b: 5.40)
